Record form. Attribute: melting point. Fill in for each entry.
Where a name gives a salt, the structure may show the parent alone.

Illustrative cases are given below, each with its answer.
compound: Cc1ccccc1N1CCN(CCCN2C(=O)CCCC2=O)CC1 (as salt: hydrochloride)
melting point: 206 to 207 °C
//
compound: O=C1CCCC(=O)N1CCCN1CCN(c2ccc(Cl)cc2)CC1 (as salt: hydrochloride)
melting point: 206 to 208 °C
//
compound: O=C1CCC(=O)N1CCCN1CCN(c2ccc(F)cc2)CC1 (as salt: hydrochloride)
melting point: 246 to 247 °C
//
compound: COc1ccccc1N1CCN(CCCN2C(=O)CCC2=O)CC1 (as salt: hydrochloride)
melting point: 199 to 202 °C

// query Look at this compound and give its reported melting point. O=C1CCCC(=O)N1CCCN1CCN(c2ccc(F)cc2)CC1
// result 200 to 202 °C

====

- Tested on: anaesthetized normotensive rats
- assay protocol: In vivo blood pressure, anaesthetized normotensive rats, intravenous route
- Design: species or system rat
- details: 0.3 mg/kg intravenous, 3 hours observation
measure name: In Vivo BP Fall in mmHg (mmHg)
One number for each entry, in mmHg.

Hey, can you go through the list below and give me In Vivo BP Fall in mmHg for every item?
1. COc1ccccc1N1CCN(CCCCN2C(=O)CCC2=O)CC1 [Compound 9]
2. O=C1CCCC(=O)N1CCCN1CCN(c2ccc(F)cc2)CC1 [Compound 14]
3. COc1ccccc1N1CCN(CCCN2C(=O)CCCC2=O)CC1 [Compound 13]
4. O=C1CCC(=O)N1CCCN1CCN(c2ccc(F)cc2)CC1 [Compound 1]
5. O=C1CCCC(=O)N1CCCN1CCN(c2ccccc2F)CC1 [Compound 17]
6. Cc1ccccc1N1CCN(CCCN2C(=O)CCCC2=O)CC1 [Compound 18]
7. COc1ccccc1N1CCN(CCCN2C(=O)CCC2=O)CC1 [Compound 2]

// result
1: 46; 2: 20.0; 3: 50.0; 4: 5.0; 5: 50.0; 6: 40.0; 7: 25

====

What Duration was measured for each of the following?
- Test system: anaesthetized normotensive rats
- assay protocol: In vivo blood pressure, anaesthetized normotensive rats, intravenous route
- Set-up: species or system rat
- details: 0.3 mg/kg intravenous, 3 hours observation

Consider the following illustrative entries.
chemical string: COc1ccccc1N1CCN(CCCCN2C(=O)CCC2=O)CC1
Duration: >180 min

chemical string: Cc1ccccc1N1CCN(CCCN2C(=O)CCCC2=O)CC1
Duration: >150 min

// query Name the reported Duration value associated with the molecule COc1ccccc1N1CCN(CCCN2C(=O)CCCC2=O)CC1
// result >180 min

Hey, just so you know, these numbers are from patent US6420559B1.
